From: paper PMC10669340

assay: MTT cytotoxicity assay; format: cell-based; conditions: human, KB3.1 endocervical adenocarcinoma cells, n.c.: no cytotoxicity, read-out: Cytotoxic activity (IC50)
Quick list: IC50 per entry.
Just the number in µM, nothing appended.

Here is how some molecules turned out for IC50.
[[record]]
molecule = "CC=C(Cl)C1=CC(=O)C23CC2C(C)(C)OC3(O)C1=O (stereo not drawn)"
u = "µM"
reported_measurement = 11

[[record]]
molecule = "CCCCCCC(C)/C=C/C=C/C=C/C(=O)N[C@H](C(=O)O)[C@H](O)c1ccccc1O (relative stereo)"
u = "µM"
reported_measurement = 17


Given COC1=C(C(=O)[C@@]2(C)[C@@H](C)C=C[C@H]3C[C@@H](C)CC[C@@H]32)C(=O)[C@H]([C@@H](C)O)N1C , state its recorded IC50.
15
